Test system: E. faecalis ATCC29212
Test: MIC, microdilution broth method (NCCLS)
Type: cell-based
Settings: Enterococcus faecalis, Table 2, 3,6-Dicarbamoyl Macrolide Derivatives, read-out: MIC Values, C: E. faecalis ATCC29212
MIC by entry:
State the answer as a number, implicitly in µg/mL.

input: What value of MIC has been recorded for this entry: `CC[C@H]1OC(=O)[C@H](C)[C@@H](OC(=O)N(C)OC)[C@H](C)[C@@H](O[C@@H]2O[C@H](C)C[C@H](N(C)C)[C@H]2O)[C@](C)(OC(=O)NC/C=C/c2ccc(-c3ncccn3)cc2)C[C@@H](C)C(=O)[C@H](C)[C@H]2NC(=O)O[C@@]21C`
output: 0.5

Further cases:
input: What value of MIC has been recorded for this entry: `CC[C@H]1OC(=O)[C@H](C)[C@@H](OC(=O)N(C)C)[C@H](C)[C@@H](O[C@@H]2O[C@H](C)C[C@H](N(C)C)[C@H]2O)[C@](C)(OC(=O)NC/C=C/c2ccc(-c3ncccn3)cc2)C[C@@H](C)C(=O)[C@H](C)[C@H]2NC(=O)O[C@@]21C`
output: 0.25

All figures here come from patent US6825172B2.
